Parameter: inhibition. Scope: all listed entries.
- test target: Ribosomal protein S6 kinase alpha-5 (Homo sapiens)
- study conditions: at 1 µM
property: inhibition (%)

* COc1cc2ncnc(Nc3ccc(C)c(O)c3)c2cc1OC | 4.76
* C[C@@H](Oc1cc(-n2cnc3ccc(OCC4CCN(C)CC4)cc32)sc1C(N)=O)c1ccccc1C(F)(F)F | -0.6
* ON=C1CCc2cc(-c3nc(C4CCNCC4)[nH]c3-c3ccncc3)ccc21 | -0.44
* CN(C)c1cc2c(Nc3ccc4c(cnn4Cc4ccccc4)c3)ncnc2cn1 | 6.2
* O=C1Nc2ccc(-c3cccnc3)cc2C1=Cc1cc(Br)c(O)c(Br)c1 | 3.39
* CN1CCN(C(=O)c2ccc(NC(=O)Nc3ccc(N(C)c4ccnc(Nc5ccc(CS(C)(=O)=O)cc5)n4)cc3)cc2)CC1 | 3.3
* COc1cc(/C=N/Nc2ncnc3c2cnn3C(C)C)ccc1O | 3.54
* CCn1c(-c2nonc2N)nc2c(C#CC(C)(C)O)nc(OCCNC)cc21 | 2.97
* Cc1ccc2c(c1)/C(=N/Nc1ccc(S(N)(=O)=O)cc1)C(=O)N2 | 1.23
* N#Cc1c(NC(=O)c2ccccc2F)sc2c1CCCC2 | -2.33
* Nc1nccc(-c2c(-c3ccc(F)cc3)ncn2CCCN2CCOCC2)n1 | 6.81
* COC(=O)Nc1nc2cc(Oc3ccc(NC(=O)Nc4cccc(Br)c4)cc3)ccc2[nH]1 | 1.7
* Nc1nccc(C#Cc2cncnc2Nc2ccc(OCc3cccc(F)c3)c(Cl)c2)n1 | 4.83
* NS(=O)(=O)c1cccc(-c2cc3ccncc3cc2OCc2ccccc2)c1 | 5.54
* COc1ccc(-c2nn3ncccc3c2-c2ccnc(Nc3cccc(C(F)(F)F)c3)n2)cc1 | -0.09
* C[C@@H](Oc1cc(-n2cnc3ccc(OC[C@@H](O)CO)cc32)sc1C(N)=O)c1ccccc1Cl | -0.54
* CCn1c(-c2nonc2N)nc2ccc(F)cc21 | 21.2
* COc1cc2ncn(-c3cc(OCc4ccccc4S(C)(=O)=O)c(C#N)s3)c2cc1OC | 11
* FC(F)(F)c1ccc(-c2nn3ncccc3c2-c2ccnc(Nc3ccc4c(c3)OCCO4)n2)cc1 | 4.3
* NS(=O)(=O)c1ccc(Nc2cc(-c3cccc(O)c3)n[nH]2)cc1 | 5.94
* OCc1ccc(-c2nc(-c3ccccn3)c(-c3ccc4c(c3)OCO4)[nH]2)cc1 | 3.7
* COc1cccc(-n2nc(C)c3c(N/N=C(\C)c4ccncc4)ncnc32)c1 | -0.52
* Nc1ccc(C#Cc2cncnc2Nc2ccc(OCc3cccc(F)c3)c(Cl)c2)cc1 | -0.19
* CCS(=O)(=O)c1ccc(OC)c(Nc2ncc(-c3cccc(OC)c3)o2)c1 | 7.32
* Cc1cc(Cl)cc2c1NC(=O)C2=NNc1ccc(S(N)(=O)=O)cc1 | 2.08

====

- test target: Ribosomal protein S6 kinase alpha-5 (Homo sapiens) (UniProt O75582)
- Sequence (O75582 whole entry, looked up): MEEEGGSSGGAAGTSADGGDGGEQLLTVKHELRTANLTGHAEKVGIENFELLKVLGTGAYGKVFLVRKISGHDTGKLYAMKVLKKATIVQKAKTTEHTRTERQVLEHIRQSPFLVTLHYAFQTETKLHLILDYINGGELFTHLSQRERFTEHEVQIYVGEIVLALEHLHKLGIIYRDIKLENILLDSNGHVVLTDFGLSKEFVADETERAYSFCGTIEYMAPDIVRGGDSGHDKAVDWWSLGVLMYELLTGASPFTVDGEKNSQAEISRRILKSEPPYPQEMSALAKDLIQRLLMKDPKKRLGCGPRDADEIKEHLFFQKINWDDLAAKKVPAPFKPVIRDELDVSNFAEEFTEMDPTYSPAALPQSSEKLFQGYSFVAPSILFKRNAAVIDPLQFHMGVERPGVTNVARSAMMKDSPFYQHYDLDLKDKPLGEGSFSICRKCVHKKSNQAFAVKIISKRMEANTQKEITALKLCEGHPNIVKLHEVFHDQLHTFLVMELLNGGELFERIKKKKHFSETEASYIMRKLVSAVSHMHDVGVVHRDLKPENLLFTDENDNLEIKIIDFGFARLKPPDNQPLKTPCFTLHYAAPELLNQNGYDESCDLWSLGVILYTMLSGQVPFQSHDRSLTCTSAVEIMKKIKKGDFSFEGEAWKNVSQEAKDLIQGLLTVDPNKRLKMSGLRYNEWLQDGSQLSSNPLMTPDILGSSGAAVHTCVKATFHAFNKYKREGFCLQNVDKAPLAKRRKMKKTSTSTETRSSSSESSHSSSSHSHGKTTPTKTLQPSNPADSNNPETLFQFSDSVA
- study conditions: at 0.1 µM
property: inhibition (%)

* Cc1ccc2c(-c3ccnc(Nc4ccc5c(c4)OCCO5)n3)c(-c3ccc(C(F)(F)F)cc3)nn2n1 | -0.15
* CCn1c(-c2nonc2N)nc2ccc(F)cc21 | 7.13
* COc1cc2ncn(-c3cc(OCc4ccccc4S(C)(=O)=O)c(C#N)s3)c2cc1OC | 8.16
* Cc1ccc2c(-c3ccnc(Nc4cccc(C(F)(F)F)c4)n3)c(-c3ccccc3)nn2n1 | -3.38
* COc1ccc(-c2nn3ncccc3c2-c2ccnc(Nc3cccc(C(F)(F)F)c3)n2)cc1 | 1.92
* Nc1nccc(C#Cc2cncnc2Nc2ccc(OCc3cccc(F)c3)c(Cl)c2)n1 | 4.15
* CCS(=O)(=O)c1ccc(OC)c(Nc2nccc(N(C)c3ccc4c(C)n[nH]c4c3)n2)c1 | 4.1
* C[C@@H](Oc1cc(-n2cnc3ccc(OC[C@@H](O)CO)cc32)sc1C(N)=O)c1ccccc1Cl | -1.23
* CCn1c(-c2nonc2N)nc2c(C#CC(C)(C)O)nc(OCCNC)cc21 | 1.77

Origin of measurements: ChEMBL document CHEMBL1961873
